target: Candida krusei clinical isolate, whole cells (Candida krusei); assay: FACS, IgG on fixed cells
measured-parameter: affinity (nM)
Number in nM, nothing else.

Worked set:
INSERT INTO measurements (binder, readout_unit, numeric_value) VALUES
  ('P2H12 IgG (antibody, V domains shown) VH: EVQLVESGGGLVKAGGSLILSCGVSNFRISAHTMNWVRRVPGGGLEWVASISTSSTYRDYADAVKGRFTVSRDDLEDFVYLQMHKMRVEDTAIYYCARKGSDRLSDNDPFDAWGPGTVVTVSP VL: GVVMTQSPSTLSASVGDTITITCRASQSIETWLAWYQQKPGKAPKLLIYKASTLKTGVPSRFSGSGSGTEFTLTISGLQFDDFATYHCQHYTDHHGATFGQGTRVEIKR', 'nM', 50),
  ('2G12 Polymun (Cat. No. AB002, Polymun Scientific) (antibody, V domains shown) VH: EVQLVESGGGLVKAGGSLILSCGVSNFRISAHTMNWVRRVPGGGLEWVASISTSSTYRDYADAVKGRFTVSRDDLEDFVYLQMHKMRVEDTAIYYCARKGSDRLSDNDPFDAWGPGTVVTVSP VL: DVVMTQSPSTLSASVGDTITITCRASQSIETWLAWYQQKPGKAPKLLIYKASTLKTGVPSRFSGSGSGTEFTLTISGLQFDDFATYHCQHYAGYSATFGQGTRVEIKR', 'nM', 1000);

Now turn to the next binder.
Data request: For the binder 1H12 IgG (antibody, V domains shown) VH: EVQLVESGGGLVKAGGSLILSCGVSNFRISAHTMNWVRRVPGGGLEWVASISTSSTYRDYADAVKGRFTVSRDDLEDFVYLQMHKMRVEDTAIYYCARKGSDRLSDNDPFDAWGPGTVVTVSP VL: GVVMTQSPSTLSASVGDTITITCRASQSIETWLAWYQQKPGKAPKLLIYKASTLKTGVPSRFSGSGSGTEFTLTISGLQFDDFATYHCQHYMPYRASFGQGTRVEIKR , give its reported affinity.
Data returned: 17
